Task for the reader: assign each of the following compounds its reported Ki.
# measured.on: Adenosine receptor A3 (Homo sapiens, UniProt P0DMS8)
# Sequence (P0DMS8 whole entry): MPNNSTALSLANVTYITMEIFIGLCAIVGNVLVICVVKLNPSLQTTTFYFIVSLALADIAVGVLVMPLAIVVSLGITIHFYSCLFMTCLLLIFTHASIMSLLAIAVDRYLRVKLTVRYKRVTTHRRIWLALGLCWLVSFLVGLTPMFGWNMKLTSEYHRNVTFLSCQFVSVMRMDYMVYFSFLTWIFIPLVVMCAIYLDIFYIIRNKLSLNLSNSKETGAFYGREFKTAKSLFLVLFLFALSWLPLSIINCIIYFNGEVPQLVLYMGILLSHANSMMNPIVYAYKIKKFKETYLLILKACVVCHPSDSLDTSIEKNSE
# experiment.summary: Antagonist activity at human adenosine A3 receptor expressed in Flp-In-CHO cell membrane assessed as inhibition of NECA-induced cAMP accumulation in presence of forskolin measured after 40 mins by alpha screen LANCE assay
Numbers only, in nM.

smiles.representation	measured.on	Ki, nM
CCCCn1c(=O)c2nc(C34CCC(C(=O)NCCOCCOCCN=[N+]=[N-])(CC3)CC4)[nH]c2n(CCCNC(=O)c2ccc(S(=O)(=O)F)cc2)c1=O	Adenosine receptor A3 (Homo sapiens, UniProt P0DMS8)	39.8
C#CCCCCNC(=O)C12CCC(c3nc4c(=O)n(CCCC)c(=O)n(CCCNC(=O)c5ccc(S(=O)(=O)F)cc5)c4[nH]3)(CC1)CC2	Adenosine receptor A3 (Homo sapiens, UniProt P0DMS8)	43.7

Please find the next compound below.
// map "CCCCn1c(=O)c2nc(C34CCC(C(=O)NCCOCCOCCOCCN=[N+]=[N-])(CC3)CC4)[nH]c2n(CCCNC(=O)c2ccc(S(=O)(=O)F)cc2)c1=O" to recorded Ki (system: Adenosine receptor A3 (Homo sapiens, UniProt P0DMS8))
8.3

* * *

# measured.on: Adenosine receptor A3 (Homo sapiens) (UniProt P0DMS8)
# Sequence (P0DMS8 whole entry, the tested form may be a part): as the sequence (P0DMS8 whole entry) above
# experiment.summary: Inhibition of CA200645 binding to NanoLuc-fused human Adenosine A3 receptor expressed in HEK293-A cells using furimazine as substrate preincubated for 3 hrs followed by ligand washout and further incubated for 60 mins with CA200645 by NanoBRET assay
# Format: cell-based
# settings: filed as antagonist
The source made the active and inactive calls. No cut-off for these calls is given here.
quantity.name: inhibition

smiles.representation	result
C#CCNC(=O)C12CCC(c3nc4c(=O)n(CCCC)c(=O)n(CCCNC(=O)c5ccc(S(=O)(=O)F)cc5)c4[nH]3)(CC1)CC2	Active
CCCCn1c(=O)c2nc(C34CCC(C(=O)OC)(CC3)CC4)[nH]c2n(CCCNC(=O)c2ccc(S(=O)(=O)F)cc2)c1=O	Active
CCCCn1c(=O)c2nc(C34CCC(C(=O)NCCCN=[N+]=[N-])(CC3)CC4)[nH]c2n(CCCNC(=O)c2ccc(S(=O)(=O)F)cc2)c1=O	Active
C#CCCCCNC(=O)C12CCC(c3nc4c(=O)n(CCCC)c(=O)n(CCCNC(=O)c5ccc(S(=O)(=O)F)cc5)c4[nH]3)(CC1)CC2	Active

* * *

# measured.on: Adenosine receptor A1 (Homo sapiens, UniProt P30542)
# Sequence (P30542 whole entry): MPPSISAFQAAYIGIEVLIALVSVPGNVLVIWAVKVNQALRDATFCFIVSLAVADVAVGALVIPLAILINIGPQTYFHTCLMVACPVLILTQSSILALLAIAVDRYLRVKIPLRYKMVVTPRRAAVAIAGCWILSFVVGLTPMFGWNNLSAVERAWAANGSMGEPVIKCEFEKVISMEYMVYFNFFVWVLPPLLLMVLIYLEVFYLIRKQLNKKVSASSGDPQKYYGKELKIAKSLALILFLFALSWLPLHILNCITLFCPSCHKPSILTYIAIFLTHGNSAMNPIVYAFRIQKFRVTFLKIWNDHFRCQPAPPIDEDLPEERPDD
# experiment.summary: Displacement of [3H] DPCPX from human A1 adenosine receptor expressed in Flp-In-CHO cell membrane incubated for 4 hrs by microbeta scintillation counting method
# Type: cell membranes
quantity.name: Ki
Report as: number unit

smiles.representation	result
CCCCn1c(=O)c2nc(C34CCC(C(=O)OC)(CC3)CC4)[nH]c2n(CCCNC(=O)c2ccc(S(=O)(=O)O)cc2)c1=O	179 nM

Value sought for every listed compound: Ki.
1. CCCn1c(=O)c2nc(C34CCC(C(=O)NCCCN=[N+]=[N-])(CC3)CC4)[nH]c2n(CCCNC(=O)c2ccc(S(=O)(=O)F)cc2)c1=O
2. CCCCn1c(=O)c2nc(C34CCC(C(=O)NCCCN=[N+]=[N-])(CC3)CC4)[nH]c2n(CCCNC(=O)c2ccc(S(=O)(=O)O)cc2)c1=O
3. CCCCn1c(=O)c2nc(C34CCC(C(=O)OC)(CC3)CC4)[nH]c2n(CCCNC(=O)c2ccc(S(=O)(=O)F)cc2)c1=O
4. CCCCn1c(=O)c2nc(C34CCC(C(=O)NCCCCCCCCN=[N+]=[N-])(CC3)CC4)[nH]c2n(CCCNC(=O)c2ccc(S(=O)(=O)F)cc2)c1=O
5. O[C@H]1CC[C@H](Nc2nc(-c3ccccc3)nc3[nH]ccc23)CC1
6. CCCCn1c(=O)c2nc(C34CCC(C(=O)NCCOCCOCCN=[N+]=[N-])(CC3)CC4)[nH]c2n(CCCNC(=O)c2ccc(S(=O)(=O)F)cc2)c1=O
7. CCCCn1c(=O)c2nc(C3CCCCC3)[nH]c2n(CCCNC(=O)c2ccc(S(=O)(=O)F)cc2)c1=O

3.5 nM
605 nM
17.3 nM
3.7 nM
0.6 nM
6.1 nM
12.1 nM

// input: 2 compounds below; output: Ki for each
1. C#CCCCCNC(=O)C12CCC(c3nc4c(=O)n(CCCC)c(=O)n(CCCNC(=O)c5ccc(S(=O)(=O)F)cc5)c4[nH]3)(CC1)CC2
2. C#CCNC(=O)C12CCC(c3nc4c(=O)n(CCCC)c(=O)n(CCCNC(=O)c5ccc(S(=O)(=O)F)cc5)c4[nH]3)(CC1)CC2

1. 1.6 nM
2. 26.1 nM

* * *

# measured.on: Adenosine receptor A1 (Homo sapiens, UniProt P30542)
# experiment.summary: Displacement of [3H] DPCPX from human adenosine A1 receptor expressed in Flp-In-CHO cell membrane incubated for 3 hrs followed by compound washout and further incubated for 4 hrs with radioligand by microbeta scintillation counting method
# Type: cell membranes
quantity.name: log10 Ki (log10 of the value in nM)
Scale type: logarithmic (base 10). Underlying Ki unit: nM.

For each listed entry, give its log10 Ki.
1. CCCCn1c(=O)c2nc(C34CCC(C(=O)NCCOCCOCCN=[N+]=[N-])(CC3)CC4)[nH]c2n(CCCNC(=O)c2ccc(S(=O)(=O)F)cc2)c1=O
2. C#CCCCCNC(=O)C12CCC(c3nc4c(=O)n(CCCC)c(=O)n(CCCNC(=O)c5ccc(S(=O)(=O)F)cc5)c4[nH]3)(CC1)CC2
3. CCCCn1c(=O)c2nc(C34CCC(C(=O)OC)(CC3)CC4)[nH]c2n(CCCNC(=O)c2ccc(S(=O)(=O)F)cc2)c1=O

[1.00, 0.97, 1.95]

Hello, I would appreciate it if you could give log10 Ki for each entry below.
1. CCCn1c(=O)c2nc(C34CCC(C(=O)NCCCN=[N+]=[N-])(CC3)CC4)[nH]c2n(CCCNC(=O)c2ccc(S(=O)(=O)F)cc2)c1=O
2. CCCCn1c(=O)c2nc(C34CCC(C(=O)NCCCCCCCCN=[N+]=[N-])(CC3)CC4)[nH]c2n(CCCNC(=O)c2ccc(S(=O)(=O)F)cc2)c1=O
3. C#CCNC(=O)C12CCC(c3nc4c(=O)n(CCCC)c(=O)n(CCCNC(=O)c5ccc(S(=O)(=O)F)cc5)c4[nH]3)(CC1)CC2

1: 0.89; 2: 1.21; 3: 1.59

* * *

# measured.on: Adenosine receptor A1 (Homo sapiens)
# experiment.summary: Antagonist activity at human adenosine A1 receptor expressed in Flp-In-CHO cell membrane assessed as inhibition of NECA-induced cAMP accumulation in presence of forskolin measured after 40 mins by alpha screen LANCE assay
# Format: functional, cell membranes
Hi! Just check whether Ki is below 4 nM. Below gives Condition met, equal or above gives Condition not met.

Past entries and their recorded results:
smiles.representation	measured.on	discrete.label
C#CCNC(=O)C12CCC(c3nc4c(=O)n(CCCC)c(=O)n(CCCNC(=O)c5ccc(S(=O)(=O)F)cc5)c4[nH]3)(CC1)CC2	Adenosine receptor A1 (Homo sapiens)	Condition not met
CCCCn1c(=O)c2nc(C34CCC(C(=O)NCCOCCOCCN=[N+]=[N-])(CC3)CC4)[nH]c2n(CCCNC(=O)c2ccc(S(=O)(=O)F)cc2)c1=O	Adenosine receptor A1 (Homo sapiens)	Condition met
CCCn1c(=O)c2nc(C34CCC(C(=O)NCCCN=[N+]=[N-])(CC3)CC4)[nH]c2n(CCCNC(=O)c2ccc(S(=O)(=O)F)cc2)c1=O	Adenosine receptor A1 (Homo sapiens)	Condition met
CCCCn1c(=O)c2nc(C34CCC(C(=O)NCCCCCCCCN=[N+]=[N-])(CC3)CC4)[nH]c2n(CCCNC(=O)c2ccc(S(=O)(=O)F)cc2)c1=O	Adenosine receptor A1 (Homo sapiens)	Condition not met

Let us examine a further case.
Given "O[C@H]1CC[C@H](Nc2nc(-c3ccccc3)nc3[nH]ccc23)CC1" , is recorded Ki strictly lower than 4 nM?
Condition met

* * *

# measured.on: Adenosine receptor A1 (Homo sapiens)
# experiment.summary: Antagonist activity at human adenosine A1 receptor expressed in Flp-In-CHO cell membrane assessed as inhibition of forskolin-stimulated cAMP accumulation preincubated for 5 min followed by forskolin stimulation and further incubated for 30 mins in presence of NECA by alphascreen LANCE assay
quantity.name: pKi
Answers are plain numbers, as −log10 of the molar value.

smiles.representation	measured.on	pKi
O[C@H]1CC[C@H](Nc2nc(-c3ccccc3)nc3[nH]ccc23)CC1	Adenosine receptor A1 (Homo sapiens)	9.30

Batch: pKi for all items listed.
1. C#CCNC(=O)C12CCC(c3nc4c(=O)n(CCCC)c(=O)n(CCCNC(=O)c5ccc(S(=O)(=O)F)cc5)c4[nH]3)(CC1)CC2
2. CCCn1c(=O)c2nc(C34CCC(C(=O)NCCCN=[N+]=[N-])(CC3)CC4)[nH]c2n(CCCNC(=O)c2ccc(S(=O)(=O)F)cc2)c1=O
3. CCCCn1c(=O)c2nc(C3CCCCC3)[nH]c2n(CCCNC(=O)c2ccc(S(=O)(=O)F)cc2)c1=O
4. CCCCn1c(=O)c2nc(C34CCC(C(=O)NCCCN=[N+]=[N-])(CC3)CC4)[nH]c2n(CCCNC(=O)c2ccc(S(=O)(=O)O)cc2)c1=O

1. 6.23
2. 9.22
3. 7.59
4. 7.06
